# targetEntity: transcortin (CBG) (Homo sapiens, UniProt P08185)
# Construct: from tissue; host or cells: plasma from venous blood of healthy volunteers, charcoal-treated, diluted 100-fold
# Sequence (P08185 23-405): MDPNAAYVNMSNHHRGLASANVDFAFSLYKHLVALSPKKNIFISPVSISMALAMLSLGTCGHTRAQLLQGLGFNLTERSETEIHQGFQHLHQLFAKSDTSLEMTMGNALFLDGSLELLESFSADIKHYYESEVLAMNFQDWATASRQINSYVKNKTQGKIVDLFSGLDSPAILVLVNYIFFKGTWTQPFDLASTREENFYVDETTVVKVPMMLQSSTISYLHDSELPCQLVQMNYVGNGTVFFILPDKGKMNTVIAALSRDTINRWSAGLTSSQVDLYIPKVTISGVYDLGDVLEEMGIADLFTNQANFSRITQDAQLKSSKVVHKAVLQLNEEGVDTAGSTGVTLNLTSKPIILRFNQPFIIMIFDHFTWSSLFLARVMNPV
# methodSummary: Binding of corticosteroids to transcortin: 3H-cortisol competition in charcoal-treated diluted plasma
# protocolConditions: IC50-values (nM) average ± SEM (n), 3 nM 3H-cortisol, 1 hour on ice, plasma diluted 100-fold
reportedEndpoint: IC50 (nM)
Your answer is read as nM, so omit the unit and give the number.

-- ask Quick one: IC50 for C[C@]12C=CC(=O)C=C1CCC1C2[C@@H](O)C[C@@]2(C)C1CC[C@]2(O)C(=O)CO (stereo partly shown) [Prednisolone, prednisolone] ?
-- reply 6.7

----------
Please provide measured pIC50 for the entries that follow.
Sequence of the target: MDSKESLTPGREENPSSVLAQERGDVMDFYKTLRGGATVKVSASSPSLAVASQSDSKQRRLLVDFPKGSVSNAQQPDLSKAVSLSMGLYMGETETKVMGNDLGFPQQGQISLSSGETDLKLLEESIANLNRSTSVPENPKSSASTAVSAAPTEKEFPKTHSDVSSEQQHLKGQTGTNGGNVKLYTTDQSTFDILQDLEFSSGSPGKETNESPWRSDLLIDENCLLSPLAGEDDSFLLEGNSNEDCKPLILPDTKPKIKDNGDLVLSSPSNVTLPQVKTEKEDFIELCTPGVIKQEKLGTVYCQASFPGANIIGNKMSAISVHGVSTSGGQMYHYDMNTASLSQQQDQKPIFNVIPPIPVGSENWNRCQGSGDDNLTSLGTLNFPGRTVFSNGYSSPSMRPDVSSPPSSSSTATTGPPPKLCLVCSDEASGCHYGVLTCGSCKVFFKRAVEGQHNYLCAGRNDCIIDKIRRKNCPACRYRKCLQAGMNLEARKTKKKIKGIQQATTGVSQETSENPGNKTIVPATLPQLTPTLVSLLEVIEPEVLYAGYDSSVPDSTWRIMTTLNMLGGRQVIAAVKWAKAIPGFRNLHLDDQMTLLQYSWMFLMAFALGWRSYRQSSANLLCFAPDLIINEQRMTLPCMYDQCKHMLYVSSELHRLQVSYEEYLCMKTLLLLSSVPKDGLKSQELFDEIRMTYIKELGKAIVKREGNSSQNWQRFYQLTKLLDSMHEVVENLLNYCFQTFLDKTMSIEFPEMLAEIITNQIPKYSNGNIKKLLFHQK
pIC50: −log10 of the molar value.

-- ask Quick one: pIC50 for C[C@]12C=CC(=O)C=C1CCC1C2[C@@H](O)C[C@@]2(C)C1CC[C@]2(O)C(=O)O (stereo partly shown) [Δ1-CA GYKI-24762, Δ^1-cortienic acid] ?
-- reply < 6.00

-- ask Quick one: pIC50 for C[C@]12CCC(=O)C=C1CCC1C2[C@@H](O)C[C@@]2(C)C1CC[C@]2(O)C(=O)O (stereo partly shown) [Cortienic acid (CA) GYKI-24805] ?
-- reply < 6.00

-- ask Quick one: pIC50 for CCOC(=O)O[C@]1(C(=O)OCCl)CC[C@H]2[C@@H]3CCC4=CC(=O)C=C[C@]4(C)[C@H]3[C@@H](O)C[C@@]21C [Loteprednol etabonate] ?
-- reply 8.40

-- ask Quick one: pIC50 for COC(=O)[C@@]1(O)CCC2C3CCC4=CC(=O)C=C[C@]4(C)C3[C@@H](O)C[C@@]21C (stereo partly shown) [Δ1-CA-Me GYKI-24776, Δ^1-CA, methyl ester] ?
-- reply < 6.00

----------
# targetEntity: transcortin (CBG) (Homo sapiens, UniProt P08185)
# Construct: from tissue; host or cells: plasma from venous blood of healthy volunteers, charcoal-treated, diluted 100-fold
# methodSummary: Binding of corticosteroids to transcortin: 3H-cortisol competition in charcoal-treated diluted plasma
# protocolConditions: estimated; unpublished results Bodor, Kurucz 2006; read-out: CBG Est. IC50
# Experimental: Experimental procedure: Venous blood was collected from healthy volunteers into heparin-containing tubes (5 Us/100 ml serum) and cells were separated from plasma by centrifugation (1500 g for 15 min). […] They were then centrifuged for 10 min at 15 000 g, and the same aliquots from the clear supernatants were quantitatively decanted into counting vials and combined with 3 ml of toluene-based scintillation fluid. […] Specific binding and IC50-values were calculated.
pIC50: −log10 of the molar value.
Please provide measured pIC50 for the entries that follow.

-- ask Quick one: pIC50 for C[C@@H]1C[C@H]2[C@@H]3CCC4=CC(=O)C=C[C@]4(C)[C@@]3(Cl)[C@@H](O)C[C@]2(C)[C@@]1(OC(=O)c1ccco1)C(=O)CCl [Mometasone furoate] ?
-- reply < 5.00

-- ask Quick one: pIC50 for CCCC1O[C@@H]2C[C@H]3[C@@H]4CCC5=CC(=O)C=C[C@]5(C)[C@H]4[C@@H](O)C[C@]3(C)[C@]2(C(=O)CO)O1 (some centres unmarked) [budesonide (BUD), budesonide] ?
-- reply < 5.00

-- ask Quick one: pIC50 for CCC(=O)O[C@]1(C(=O)SCF)[C@H](C)C[C@H]2[C@@H]3C[C@H](F)C4=CC(=O)C=C[C@]4(C)[C@@]3(F)[C@@H](O)C[C@@]21C [Fluticasone propionate] ?
-- reply < 5.00

-- ask Quick one: pIC50 for C[C@]12C=CC(=O)C=C1CC[C@@H]1[C@@H]2[C@@H](O)C[C@@]2(C)[C@H]1C[C@H]1O[C@@H](C3CCCCC3)O[C@]12C(=O)CO [Ciclesonide, act. metab.] ?
-- reply < 5.00

-- ask Quick one: pIC50 for C[C@]12CCC(=O)C=C1CCC1C2[C@@H](O)C[C@@]2(C)C1CC[C@]2(O)C(=O)CO (some centres unmarked) [Hydrocortisone (cortisol), hydrocortisone] ?
-- reply 7.15

----------
# targetEntity: transcortin (CBG) (Homo sapiens, UniProt P08185)
# Construct: from tissue; host or cells: plasma from venous blood of healthy volunteers, charcoal-treated, diluted 100-fold
# methodSummary: Binding of corticosteroids to transcortin: 3H-cortisol competition in charcoal-treated diluted plasma
# protocolConditions: 3 nM 3H-cortisol, 1 hour on ice, plasma diluted 100-fold; read-out: IC50-values (nM) average ± SEM (n)
reportedEndpoint: IC50 (nM)
Your answer is read as nM, so omit the unit and give the number.

-- ask Quick one: IC50 for COC(=O)[C@@]1(O)CCC2C3CCC4=CC(=O)CC[C@]4(C)C3[C@@H](O)C[C@@]21C (stereo partly shown) ?
-- reply 5.9

-- ask Quick one: IC50 for C[C@]12C=CC(=O)C=C1CCC1C2[C@@H](O)C[C@@]2(C)C1CC[C@]2(O)C(=O)O (stereo partly shown) ?
-- reply 52

-- ask Quick one: IC50 for C[C@]12CCC(=O)C=C1CCC1C2[C@@H](O)C[C@@]2(C)C1CC[C@]2(O)C(=O)O (stereo partly shown) ?
-- reply 117

-- ask Quick one: IC50 for C[C@]12CCC(=O)C=C1CCC1C2[C@@H](O)C[C@@]2(C)C1CC[C@]2(O)C(=O)CO (stereo partly shown) [Hydrocortisone (cortisol), hydrocortisone] ?
-- reply 69

Attribution: patent US7687484B2
